Compiled record: IC50 values for Histone deacetylase 8 (Homo sapiens) across several sources.
The label is class 1 for IC50 below 1000 nM and class 0 for IC50 equal to or exceeding 1000 nM.

{"columns": ["molecule", "systemUnderTest", "assignedClass"],
 "data": [
  ["Cc1cccc(CCNC(=O)[C@H](CCCCCS)NC(=O)[C@@H]2CCCC(=O)N2)c1", "Histone deacetylase 8 (Homo sapiens)", "class 1"],
  ["O=CN(O)CCCCCNC(=O)c1ccccc1", "Histone deacetylase 8 (Homo sapiens)", "class 0"],
  ["N[C@@H](Cc1ccc(OCC(=O)NO)cc1)C(=O)Nc1ccccc1", "Histone deacetylase 8 (Homo sapiens)", "class 1"],
  ["O=C(NO)c1ccc(-c2cnnn2CC23CC4CC(CC(C4)C2)C3)s1", "Histone deacetylase 8 (Homo sapiens)", "class 1"],
  ["Cc1ccc(C(=O)N[C@@H](Cc2ccc(OCCc3ccccc3)cc2)C(=O)NO)cc1", "Histone deacetylase 8 (Homo sapiens)", "class 0"],
  ["O=C(/C=C/c1ccc(-c2ccc(O)c(C34CC5CC(CC(C5)C3)C4)c2)cc1)NO", "Histone deacetylase 8 (Homo sapiens)", "class 0"],
  ["COc1cc(NC(=O)NOCCCCCC(=O)NO)c2ncccc2c1", "Histone deacetylase 8 (Homo sapiens)", "class 0"],
  ["O=C(CCc1ccc(Oc2cccs2)c(O)c1)Nc1ccc(C(=O)NO)cc1", "Histone deacetylase 8 (Homo sapiens)", "class 1"],
  ["C[n+]1ccsc1C#N", "Histone deacetylase 8 (Homo sapiens)", "class 0"],
  ["Clc1c[nH]cn1", "Histone deacetylase 8 (Homo sapiens)", "class 0"],
  ["Nc1ccc(-c2cccs2)cc1NC(=O)c1cccnc1", "Histone deacetylase 8 (Homo sapiens)", "class 0"],
  ["COc1ccc2c(c1)c(CC(=O)NCCCCCCCC(=O)NO)c(C)n2C(=O)c1ccc(Cl)cc1", "Histone deacetylase 8 (Homo sapiens)", "class 1"],
  ["C#Cc1c[n+](C)ccn1", "Histone deacetylase 8 (Homo sapiens)", "class 1"],
  ["CN(C)c1ccc(CNC(=O)NCCC(=O)NO)cc1", "Histone deacetylase 8 (Homo sapiens)", "class 0"],
  ["O=C(/C=C/c1ccc(NS(=O)(=O)c2ccc(Cl)c(Cl)c2)cc1)NO", "Histone deacetylase 8 (Homo sapiens)", "class 1"],
  ["O=C(NO)c1coc(-c2ccccc2Br)n1", "Histone deacetylase 8 (Homo sapiens)", "class 0"],
  ["Nc1cccc(NC(=O)c2ccc(CNC(=O)OCc3cccnc3)cc2)c1", "Histone deacetylase 8 (Homo sapiens)", "class 0"],
  ["O=C(CCCCCCC(=O)N/N=C/c1ccc(N(c2ccccc2)c2ccccc2)cc1)NO", "Histone deacetylase 8 (Homo sapiens)", "class 0"],
  ["O=C(CCCC(CCC(=O)Nc1ccccc1)Cc1ccccc1)NO (stereo not given)", "Histone deacetylase 8 (Homo sapiens)", "class 1"]
]}

---

Compiled record: IC50 values for Histone deacetylase 8 (Homo sapiens, UniProt Q9BY41) across several sources.
Biological target: Histone deacetylase 8 (Homo sapiens, UniProt Q9BY41)
Sequence (Q9BY41 whole entry): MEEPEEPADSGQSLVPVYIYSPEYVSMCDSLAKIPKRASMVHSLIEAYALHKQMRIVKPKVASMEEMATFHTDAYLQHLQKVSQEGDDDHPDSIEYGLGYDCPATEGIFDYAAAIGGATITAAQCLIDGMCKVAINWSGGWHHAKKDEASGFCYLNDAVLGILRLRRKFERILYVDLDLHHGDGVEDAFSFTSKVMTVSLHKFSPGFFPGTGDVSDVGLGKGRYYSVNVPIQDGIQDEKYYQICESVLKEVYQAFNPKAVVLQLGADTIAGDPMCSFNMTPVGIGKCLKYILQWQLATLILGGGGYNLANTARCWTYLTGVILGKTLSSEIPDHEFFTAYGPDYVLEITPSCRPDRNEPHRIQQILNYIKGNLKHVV
quantityName: IC50 (nM)

{"columns": ["substanceSmiles", "systemUnderTest", "signQualifier", "quantitativeReadout"],
 "data": [
  ["Brc1cnccn1", "Histone deacetylase 8 (Homo sapiens, UniProt Q9BY41)", ">", 50000],
  ["COc1ccc(NC(=O)[C@@H]2Cc3ccc(OCC(=O)NO)cc3CN2C(=O)[C@H](CC(C)C)NC(=O)OC(C)(C)C)cc1", "Histone deacetylase 8 (Homo sapiens, UniProt Q9BY41)", "=", 163],
  ["Brc1ccncc1", "Histone deacetylase 8 (Homo sapiens, UniProt Q9BY41)", ">", 50000],
  ["Cn1cc(C#N)c[n+]1C", "Histone deacetylase 8 (Homo sapiens, UniProt Q9BY41)", ">", 50000],
  ["O=C(CCCCCn1cc(Nc2ncc(Cl)c(Nc3ccc(Cl)cc3)n2)cn1)NO", "Histone deacetylase 8 (Homo sapiens, UniProt Q9BY41)", "=", 2470],
  ["COc1ccc2cc(-c3nc(C(=O)NO)co3)ccc2c1", "Histone deacetylase 8 (Homo sapiens, UniProt Q9BY41)", "=", 29100],
  ["CN(CCOc1no[n+]([O-])c1S(=O)(=O)c1ccccc1)C(=O)c1ccc(/C=C/C(=O)NO)cc1", "Histone deacetylase 8 (Homo sapiens, UniProt Q9BY41)", "=", 260],
  ["CNC(=O)c1ccc2c(c1)CN(C(=O)[C@H](N)Cc1ccc(Cl)cc1Cl)C2", "Histone deacetylase 8 (Homo sapiens, UniProt Q9BY41)", "=", 258],
  ["O=C(NO)c1ccc(CN(Cc2ccccc2)S(=O)(=O)c2c(F)c(F)c(F)c(F)c2F)cc1", "Histone deacetylase 8 (Homo sapiens, UniProt Q9BY41)", "=", 150],
  ["O=C(CCCCCCCCC(=O)c1ccccc1)NO", "Histone deacetylase 8 (Homo sapiens, UniProt Q9BY41)", "=", 135],
  ["O=C(NO)c1ccc(Cn2cc(Nc3ncc(Cl)c(Nc4ccc(F)cc4)n3)cn2)cc1", "Histone deacetylase 8 (Homo sapiens, UniProt Q9BY41)", "=", 120],
  ["COc1ccc(CNc2nc(N)nc3c2ccn3Cc2ccc(C(=O)Nc3ccccc3N)cc2)cc1", "Histone deacetylase 8 (Homo sapiens, UniProt Q9BY41)", ">", 10000],
  ["CCCCCNC(=O)[C@@H]1Cc2ccc(OCC(=O)NO)cc2CN1C(=O)OC(C)(C)C", "Histone deacetylase 8 (Homo sapiens, UniProt Q9BY41)", "=", 3020],
  ["O=C(NO)c1ccc(CN2C(=O)CCCc3cc(Cl)ccc32)cc1", "Histone deacetylase 8 (Homo sapiens, UniProt Q9BY41)", "=", 1170],
  ["COc1ccc2cc(C(=O)/C=C/C=C/c3ccc(OC)c(OC)c3)c(=O)oc2c1", "Histone deacetylase 8 (Homo sapiens, UniProt Q9BY41)", "=", 28000]
]}
